Catalogue of molecules with associated TGI
- Test system: OVCAR-8 ovarian
- experimental.details: NCI tumour cell line growth inhibition, 48 h
assay.endpoint: TGI

1) CC1=C(O)C(=O)C=C2C1=CC=C1[C@@]2(C)CC[C@@]2(C)[C@@H]3C[C@](C)(C(=O)O)CC[C@]3(C)CC[C@]12C = 0.0712 µM
2) Nc1ccc(S2(c3ccc(N)cc3)C=C(c3ccccc3)C(c3ccccc3)=C2)cc1 = 98.4 µM
3) O=C1NC2OC(C(O)CO)C(O)C2O1 (stereo not given) = > 100 µM
4) C[C@H](O)C(=O)N1CCC(CCn2c(Sc3cc4c(cc3Br)OCO4)nc3c(N)ncnc32)CC1 = > 100 µM
5) O=C1CSC(/C(=N/Nc2ccccc2)c2nc3ccccc3[nH]2)=N1 = > 100 µM
6) CN(C)C(=O)[C@H](O)[C@H](Cc1ccccc1)NC(=O)c1cc2cc(Cl)ccc2[nH]1 = > 100 µM
7) COc1cccc(C#Cc2ccccc2C#CCCCCO)c1 = 27.9 µM
8) C1C[OH+]CC[OH+]CC[OH+]CC[OH+]CC[OH+]1.[Cl-].[V] = > 100 µM
9) Cn1c2ccccc2c(=O)c2cccc(C(=O)NC(CCCN=C(N)N)C(=O)O)c21 (stereo not given) = > 100 µM
10) CC(=O)O[C@H]1CC[C@@]2(C)C(=CC[C@H]3[C@@H]4C[C@H](N5CCOCC5)[C@H](OC(C)=O)[C@@]4(C)CC[C@@H]32)C1 = > 100 µM
